biological target: PRMT5 (Homo sapiens, UniProt O14744); construct: purchased Viva (custom protein); assay: PRMT5 biochemical IC50 assay with SAM as cofactor; settings: PRMT5, SAM as cofactor; read-out: SAM IC50
Sequence (O14744 whole entry): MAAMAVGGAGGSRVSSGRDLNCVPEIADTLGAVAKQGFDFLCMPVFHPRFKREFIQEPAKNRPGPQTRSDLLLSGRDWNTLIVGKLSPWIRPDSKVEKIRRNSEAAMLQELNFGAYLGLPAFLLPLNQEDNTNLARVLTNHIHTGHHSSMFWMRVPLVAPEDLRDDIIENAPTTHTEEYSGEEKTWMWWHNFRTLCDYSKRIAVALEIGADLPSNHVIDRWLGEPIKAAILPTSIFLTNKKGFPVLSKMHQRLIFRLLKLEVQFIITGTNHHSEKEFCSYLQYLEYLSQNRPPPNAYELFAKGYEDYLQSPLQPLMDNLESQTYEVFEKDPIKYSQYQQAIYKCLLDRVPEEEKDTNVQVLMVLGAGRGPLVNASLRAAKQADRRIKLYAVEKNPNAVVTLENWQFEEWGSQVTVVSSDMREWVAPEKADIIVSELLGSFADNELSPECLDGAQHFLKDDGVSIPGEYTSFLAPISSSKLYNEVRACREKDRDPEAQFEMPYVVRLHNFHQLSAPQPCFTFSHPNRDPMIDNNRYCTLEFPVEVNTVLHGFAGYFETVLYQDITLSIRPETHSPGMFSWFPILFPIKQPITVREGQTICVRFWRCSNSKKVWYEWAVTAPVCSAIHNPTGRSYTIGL
Sequence (Q9BQA1 whole entry partner): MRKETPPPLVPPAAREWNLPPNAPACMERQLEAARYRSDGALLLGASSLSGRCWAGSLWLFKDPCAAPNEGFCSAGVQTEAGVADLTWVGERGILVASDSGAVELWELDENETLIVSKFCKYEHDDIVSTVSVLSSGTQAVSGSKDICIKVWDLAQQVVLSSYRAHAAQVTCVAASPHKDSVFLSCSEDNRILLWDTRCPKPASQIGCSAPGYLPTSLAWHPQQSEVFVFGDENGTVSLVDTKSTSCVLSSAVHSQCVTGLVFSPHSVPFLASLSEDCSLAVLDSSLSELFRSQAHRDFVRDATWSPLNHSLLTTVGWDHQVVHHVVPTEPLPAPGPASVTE
pIC50: −log10 of the molar value.
MEASURED PROPERTY: pIC50

CCc1cc(NC(=O)C(=O)N2C[C@@H](C)CC[C@@H]2c2ccc3sc(-c4ccnn4C)nc3c2)cnc1N [Compound 1389]
6.30 to 7.30
COc1ncc(NC(=O)C(=O)N2C[C@@H](C)CC[C@@H]2c2cccc(OCCN(C)C)c2)cc1C(N)=O [Compound 1352]
> 7.30
C[C@@H]1CC[C@H](c2ccccc2)N(C(=O)C(=O)Nc2cncc(C(N)=O)c2)[C@@H]1C (racemic) [Compound 163]
6.30 to 7.30
Cc1cc(NC(=O)C(=O)N2C[C@@H](C)CC[C@@H]2c2ccc(CO)cc2)cnc1N (single isomer, unassigned) [Compound 806]
6.30 to 7.30
Cc1cc(NC(=O)C(=O)N2C[C@@H](C)CC[C@@H]2c2ccc(-c3ccn[nH]3)cc2)cnc1N (single isomer, unassigned) [Compound 676]
6.30 to 7.30
COc1cccc([C@@H]2CC[C@@H](C)CN2C(=O)C(=O)Nc2cncc(C)c2)c1 (racemic) [Compound 28]
6.30 to 7.30

Asked: Form field: reported pIC50 of COc1ncc(NC(=O)C(=O)N2C[C@H](C)CC[C@H]2c2ccc3[nH]c(C)nc3c2)cc1C(N)=O (single isomer, unassigned) [Compound 917]
Given back: 6.30 to 7.30

Asked: Form field: reported pIC50 of C[C@@H]1CC[C@H](c2cc(F)cc(Cl)c2)N(C(=O)C(=O)Nc2cncc(C(N)=O)c2)C1 (single isomer, unassigned) [Compound 625]
Given back: 6.30 to 7.30

Asked: Form field: reported pIC50 of CC(=O)N1CCC(c2cccc([C@@H]3CC[C@@H](C)CN3C(=O)C(=O)Nc3cncc(C(N)=O)c3)c2)CC1 (single isomer, unassigned) [Compound 346]
Given back: 6.30 to 7.30

Asked: Form field: reported pIC50 of C[C@H]1CC[C@H](c2cc3cn[nH]c3s2)N(C(=O)C(=O)Nc2cncc(C(N)=O)c2)C1 (single isomer, unassigned) [Compound 971]
Given back: < 6.30

Asked: Form field: reported pIC50 of COc1ncc(NC(=O)C(=O)N2C[C@H](C)CC[C@H]2c2cc(Cl)cc(Cl)c2)cc1C(N)=O (single isomer, unassigned) [Compound 965]
Given back: < 6.30

Asked: Form field: reported pIC50 of COc1ncc(NC(=O)C(=O)N2C[C@@H](C)CC[C@@H]2c2cscn2)cc1C(N)=O (single isomer, unassigned) [Compound 1033]
Given back: < 6.30

Asked: Form field: reported pIC50 of C[C@@H]1CC[C@@H](c2ccc(Cl)c(N)c2)N(C(=O)C(=O)Nc2cncc(C(N)=O)c2)C1 (racemic) [Compound 280]
Given back: 6.30 to 7.30

---

target: PRMT5 (Homo sapiens); construct: purchased Viva (custom protein); experiment: PRMT5 biochemical IC50 assay with MTA as cofactor; settings: PRMT5, MTA as cofactor; read-out: MTA IC50
pIC50: −log10 of the molar value.
MEASURED PROPERTY: pIC50

Cc1ccc([C@H]2CC[C@H](C)CN2C(=O)C(=O)Nc2cnc(N)c(C)c2)cn1 (single isomer, unassigned)
< 6.30

Asked: Form field: reported pIC50 of C[C@@H]1CC[C@@H](c2cccnc2)N(C(=O)C(=O)Nc2cncc(C(N)=O)c2)C1 (single isomer, unassigned) [Compound 106]
Given back: > 7.30

Asked: Form field: reported pIC50 of CCc1cc(NC(=O)C(=O)N2C[C@@H](C)CC[C@@H]2c2ccc(-c3cncs3)cc2)cnc1N (single isomer, unassigned)
Given back: 6.30 to 7.30

Asked: Form field: reported pIC50 of CCc1cc(NC(=O)C(=O)N2C[C@@H](C)CC[C@@H]2c2ccc(NS(C)(=O)=O)cc2)cnc1N (single isomer, unassigned)
Given back: > 7.30

Asked: Form field: reported pIC50 of C[C@@H]1CC[C@@H](c2ccc3c(c2)CNC3=O)N(C(=O)C(=O)Nc2cncc(C(N)=O)c2)C1 (single isomer, unassigned)
Given back: > 7.30

Asked: Form field: reported pIC50 of Cc1cc(NC(=O)C(=O)N2C[C@H](C)CC[C@H]2C2CC3(CC(N)C3)C2)cnc1N (mixture of isomers)
Given back: 6.30 to 7.30

---

system: HAP1 MTAP-intact cell line; experiment: SDMA in-cell western assay, HAP1 MTAP-intact; type: cell-based; details: Homo sapiens, HAP1, SDMA in-cell western, HAP1 MTAP-intact; read-out: MTAP HAP1 intact IC50
MEASURED PROPERTY: IC50

Asked: Form field: reported IC50 of COc1cc([C@@H]2CC[C@@H](C)CN2C(=O)C(=O)Nc2cncc(C(N)=O)c2)ccn1 (single isomer, unassigned) [Compound 532]
Given back: > 1000 nM

Asked: Form field: reported IC50 of CCc1cc(NC(=O)C(=O)N2C[C@@H](C)CC[C@@H]2c2ccc(-c3nccs3)cc2)cnc1N (single isomer, unassigned) [Compound 822]
Given back: > 1000 nM

Asked: Form field: reported IC50 of NC(=O)c1cncc(NC(=O)C(=O)N2C[C@@H](CO)CC[C@@H]2c2ccccc2)c1 (racemic) [Compound 266]
Given back: > 1000 nM

Asked: Form field: reported IC50 of CCc1cc(NC(=O)C(=O)N2C[C@@H](C)CC[C@@H]2c2ccc3sc(CC(C)N(C)C)nc3c2)cnc1N (mixture of isomers) [Compound 1345]
Given back: < 100 nM

Asked: Form field: reported IC50 of CCc1cc(NC(=O)C(=O)N2C[C@@H](C)CC[C@@H]2c2ccc3sc(C)nc3c2)cnc1N (single isomer, unassigned) [Compound 800]
Given back: 100 to 1000 nM

Asked: Form field: reported IC50 of COc1ncc(NC(=O)C(=O)N2C[C@H](C)CC[C@H]2c2ccc3[nH]c(C)nc3c2)cc1C(N)=O (single isomer, unassigned) [Compound 917]
Given back: > 1000 nM

Asked: Form field: reported IC50 of CCc1cc(NC(=O)C(=O)N2C[C@@H](C)CC[C@@H]2c2ccc(N3CC[C@@H]4CN(C)C[C@@H]4C3)cc2)cnc1N (relative stereo) [Compound 1349]
Given back: 100 to 1000 nM

Asked: Form field: reported IC50 of Cc1cc(NC(=O)C(=O)N2C[C@@H](C)[C@@H](OC(F)(F)F)C[C@@H]2c2ccc(F)cc2)cnc1N (single isomer, unassigned) [Compound 1213]
Given back: 100 to 1000 nM

Asked: Form field: reported IC50 of CCc1cc(NC(=O)C(=O)N2C[C@H](C)CC[C@H]2c2ccc(N3CCN(C)CC3)cc2)cnc1N (single isomer, unassigned) [Compound 1116]
Given back: > 1000 nM

Asked: Form field: reported IC50 of COc1cccc([C@@H]2CC[C@@H](C)CN2C(=O)C(=O)Nc2cncc(C)c2)c1 (racemic) [Compound 28]
Given back: > 1000 nM

Asked: Form field: reported IC50 of C[C@H]1CC[C@H](c2ccc3sc(CCN(C)C)nc3c2)N(C(=O)C(=O)Nc2cnc(N)c(C3CC3)c2)C1 (single isomer, unassigned) [Compound 1331]
Given back: > 1000 nM

Asked: Form field: reported IC50 of C[C@@H]1CC[C@@H](c2cc3cn[nH]c3s2)N(C(=O)C(=O)Nc2cncc(C(N)=O)c2)C1 (single isomer, unassigned) [Compound 943]
Given back: 100 to 1000 nM

Asked: Form field: reported IC50 of COc1cc([C@@H]2CC[C@@H](C)CN2C(=O)C(=O)Nc2cncc(C(N)=O)c2)ccc1Cl (racemic) [Compound 114]
Given back: > 1000 nM

Asked: Form field: reported IC50 of CCc1cc(NC(=O)C(=O)N2CC(C)CCC2c2ccc3sc(C4CCN(C)CC4C)nc3c2)cnc1N (racemic) [Compound 1131]
Given back: < 100 nM

Asked: Form field: reported IC50 of Cc1cc(NC(=O)C(=O)N2C[C@H](C)CC[C@H]2c2cccc(S(N)(=O)=O)c2)cnc1N (racemic) [Compound 688]
Given back: > 1000 nM

Asked: Form field: reported IC50 of Cc1cc(NC(=O)C(=O)N2C[C@H](C)CC[C@H]2c2ccc3c(c2)CCC(=O)N3)cnc1C(F)F (racemic) [Compound 641]
Given back: > 1000 nM

---

Recorded pIC50 for the following compounds
biological target: PRMT5 (Homo sapiens, UniProt O14744); construct: purchased Viva (custom protein); assay: PRMT5 biochemical IC50 assay with no cofactor; settings: PRMT5, no cofactor; read-out: No Cofactor/ rel IC50
pIC50: −log10 of the molar value.

// worked examples, pIC50 included
CC[C@@H]1CC[C@@H](c2ccccc2)N(C(=O)C(=O)Nc2cncc(C)c2)C1 (single isomer, unassigned) [Compound 17]
< 6.30
Cc1cc(NC(=O)C(=O)N2C[C@H](C)[C@H](OC(F)(F)F)C[C@H]2c2ccc(F)cc2)cnc1N (single isomer, unassigned) [Compound 1323]
< 6.30
Cc1cc(NC(=O)C(=O)N2CCCCC2c2cccc3ocnc23)cnc1N (centres unmarked) [Compound 140]
< 6.30

Asked: Form field: reported pIC50 of O=Cc1cncc(NC(=O)C(=O)N2CCCCC2c2ccccc2)c1 (centres unmarked) [Compound 147]
Given back: < 6.30

Asked: Form field: reported pIC50 of Cc1cccc([C@@H]2CCCCN2C(=O)C(=O)Nc2cnc(N)c(C)c2)c1 (single isomer, unassigned) [Compound 57]
Given back: < 6.30

Asked: Form field: reported pIC50 of CCc1cc(NC(=O)C(=O)N2C[C@@H](C)CC[C@@H]2c2ccc3sc([C@H]4CCCN(C)C4)nc3c2)cnc1N [Compound 1388]
Given back: > 7.30

Asked: Form field: reported pIC50 of Cc1cncc(NC(=O)C(=O)N2C[C@H](C)CC[C@H]2c2cccc(Cl)c2)c1 (single isomer, unassigned) [Compound 90]
Given back: < 6.30

Asked: Form field: reported pIC50 of CC(=O)N1CCC(c2cccc(C3CCCCN3C(=O)C(=O)Nc3cnc(N)c(C)c3)c2)CC1 (single isomer, unassigned) [Compound 96]
Given back: 6.30 to 7.30
